- system: Macrophage colony-stimulating factor 1 receptor (Homo sapiens)
- Sequence (P07333 whole entry, the tested form may be a part): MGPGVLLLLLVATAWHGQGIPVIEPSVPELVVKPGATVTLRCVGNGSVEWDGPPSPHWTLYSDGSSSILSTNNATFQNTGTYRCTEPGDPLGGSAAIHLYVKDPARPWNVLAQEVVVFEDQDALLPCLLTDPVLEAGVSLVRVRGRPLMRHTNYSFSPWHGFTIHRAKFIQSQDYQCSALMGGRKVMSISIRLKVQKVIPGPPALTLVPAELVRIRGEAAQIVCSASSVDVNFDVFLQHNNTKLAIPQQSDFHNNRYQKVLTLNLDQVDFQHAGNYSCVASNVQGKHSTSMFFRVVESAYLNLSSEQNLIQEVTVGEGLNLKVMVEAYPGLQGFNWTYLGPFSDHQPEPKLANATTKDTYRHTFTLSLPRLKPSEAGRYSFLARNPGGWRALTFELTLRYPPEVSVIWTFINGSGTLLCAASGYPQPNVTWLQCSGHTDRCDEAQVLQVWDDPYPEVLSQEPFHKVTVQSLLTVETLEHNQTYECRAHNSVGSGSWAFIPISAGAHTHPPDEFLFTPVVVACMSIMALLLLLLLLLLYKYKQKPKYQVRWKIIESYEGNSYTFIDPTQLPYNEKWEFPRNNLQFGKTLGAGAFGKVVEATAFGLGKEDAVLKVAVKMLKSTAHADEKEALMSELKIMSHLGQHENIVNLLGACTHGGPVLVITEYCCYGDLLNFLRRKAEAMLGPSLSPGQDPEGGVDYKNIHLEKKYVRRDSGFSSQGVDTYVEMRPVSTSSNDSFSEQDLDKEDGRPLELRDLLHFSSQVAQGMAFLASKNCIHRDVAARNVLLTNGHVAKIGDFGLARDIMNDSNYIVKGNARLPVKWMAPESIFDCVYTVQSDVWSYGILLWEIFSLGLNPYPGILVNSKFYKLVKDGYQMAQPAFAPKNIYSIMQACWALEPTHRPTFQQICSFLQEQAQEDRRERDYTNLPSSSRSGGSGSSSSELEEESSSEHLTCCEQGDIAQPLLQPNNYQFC
- assay-remarks: Binding affinity to recombinant N-terminal His-FLAG-GST-tagged CSF1R (unknown origin) (538 to 972 residues) expressed in baculovirus infected Sf9 insect cells incubated for 1 hr by TR-FRET assay
metric: pKd
# pKd is unitless: minus log10 of the molar concentration; print number only

[[record]]
record_smiles = "CO[C@@H]1[C@H](NCCOCCOCCOCCNC(=O)CCC2=[N+]3C(=Cc4c(C)cc(C)n4[B-]3(F)F)C=C2)C[C@H]2O[C@]1(C)n1c3ccccc3c3c4c(c5c6ccccc6n2c5c31)C(=O)NC4"
numeric_value = 6.55


Now consider a different compound.
May I ask what pKd has been recorded for CO[C@@H]1[C@H](N(C)CCOCCOCCOCCNC(=O)CCC2=[N+]3C(=Cc4c(C)cc(C)n4[B-]3(F)F)C=C2)C[C@H]2O[C@]1(C)n1c3ccccc3c3c4c(c5c6ccccc6n2c5c31)C(=O)NC4 ? 6.49

* * *

- system: Serine/threonine-protein kinase 33 (Homo sapiens)
- Sequence (Q9BYT3 whole entry): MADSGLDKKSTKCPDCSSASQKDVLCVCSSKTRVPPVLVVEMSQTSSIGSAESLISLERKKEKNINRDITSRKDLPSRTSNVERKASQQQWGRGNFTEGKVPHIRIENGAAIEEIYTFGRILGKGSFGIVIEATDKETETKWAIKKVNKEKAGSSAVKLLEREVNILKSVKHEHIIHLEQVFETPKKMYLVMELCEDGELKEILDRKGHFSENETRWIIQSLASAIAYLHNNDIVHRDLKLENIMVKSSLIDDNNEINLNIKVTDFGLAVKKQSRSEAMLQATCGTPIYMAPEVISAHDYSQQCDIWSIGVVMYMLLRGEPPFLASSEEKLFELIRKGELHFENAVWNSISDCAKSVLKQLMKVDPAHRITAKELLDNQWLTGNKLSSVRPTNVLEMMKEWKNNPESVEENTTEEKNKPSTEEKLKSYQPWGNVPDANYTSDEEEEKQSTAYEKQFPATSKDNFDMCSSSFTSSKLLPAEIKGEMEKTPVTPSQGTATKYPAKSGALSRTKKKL
- assay-remarks: Binding affinity to recombinant full-length N-terminal His-FLAG-GST-tagged STK33 (unknown origin) expressed in baculovirus infected Sf9 insect cells incubated for 1 hr by TR-FRET assay
# maps each entry to its pKd
# pKd is unitless: minus log10 of the molar concentration; print number only

[[record]]
record_smiles = "CO[C@@H]1[C@H](N(C)CCOCCOCCOCCNC(=O)CCC2=[N+]3C(=Cc4c(C)cc(C)n4[B-]3(F)F)C=C2)C[C@H]2O[C@]1(C)n1c3ccccc3c3c4c(c5c6ccccc6n2c5c31)C(=O)NC4"
numeric_value = 8.22


Now consider a different molecule.
May I ask what pKd has been recorded for CO[C@@H]1[C@H](NCCOCCOCCOCCNC(=O)CCC2=[N+]3C(=Cc4c(C)cc(C)n4[B-]3(F)F)C=C2)C[C@H]2O[C@]1(C)n1c3ccccc3c3c4c(c5c6ccccc6n2c5c31)C(=O)NC4 ? 8.10

* * *

- system: Serine/threonine-protein kinase ULK2 (Homo sapiens)
- Sequence (Q8IYT8 whole entry, the tested form may be a part): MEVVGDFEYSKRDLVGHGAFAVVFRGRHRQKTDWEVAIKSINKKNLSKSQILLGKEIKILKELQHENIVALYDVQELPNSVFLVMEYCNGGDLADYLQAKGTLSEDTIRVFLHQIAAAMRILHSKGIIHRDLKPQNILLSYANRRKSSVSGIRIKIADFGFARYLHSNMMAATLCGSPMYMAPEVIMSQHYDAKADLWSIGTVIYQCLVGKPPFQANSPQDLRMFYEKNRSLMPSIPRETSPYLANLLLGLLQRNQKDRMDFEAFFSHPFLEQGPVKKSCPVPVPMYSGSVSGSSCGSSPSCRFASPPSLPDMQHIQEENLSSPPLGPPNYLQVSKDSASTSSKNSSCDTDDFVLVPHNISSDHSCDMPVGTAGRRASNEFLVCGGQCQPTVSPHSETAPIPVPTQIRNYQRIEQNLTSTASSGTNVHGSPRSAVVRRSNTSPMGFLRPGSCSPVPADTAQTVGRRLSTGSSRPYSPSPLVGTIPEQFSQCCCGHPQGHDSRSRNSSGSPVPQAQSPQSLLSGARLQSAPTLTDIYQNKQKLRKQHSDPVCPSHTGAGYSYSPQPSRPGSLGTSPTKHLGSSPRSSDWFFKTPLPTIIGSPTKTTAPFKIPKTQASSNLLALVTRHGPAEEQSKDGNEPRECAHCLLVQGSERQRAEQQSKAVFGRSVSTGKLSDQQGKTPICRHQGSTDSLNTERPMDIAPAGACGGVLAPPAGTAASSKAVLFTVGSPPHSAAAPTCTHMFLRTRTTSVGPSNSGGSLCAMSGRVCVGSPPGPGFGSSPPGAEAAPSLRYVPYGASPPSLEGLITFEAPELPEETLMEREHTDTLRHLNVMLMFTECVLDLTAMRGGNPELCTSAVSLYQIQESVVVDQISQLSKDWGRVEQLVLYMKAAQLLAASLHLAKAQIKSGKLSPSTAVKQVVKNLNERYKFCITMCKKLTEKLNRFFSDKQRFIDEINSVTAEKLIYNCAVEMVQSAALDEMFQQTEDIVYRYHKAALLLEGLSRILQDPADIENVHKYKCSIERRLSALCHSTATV
- assay-remarks: Binding affinity to recombinant N-terminal His-FLAG-GST-tagged ULK2 (unknown origin) (1 to 478 residues) expressed in baculovirus infected Sf9 insect cells incubated for 1 hr by TR-FRET assay
metric: Kd (nM)
# number only, unit nM dropped from output

[[record]]
record_smiles = "CO[C@@H]1[C@H](NCCOCCOCCOCCNC(=O)CCC2=[N+]3C(=Cc4c(C)cc(C)n4[B-]3(F)F)C=C2)C[C@H]2O[C@]1(C)n1c3ccccc3c3c4c(c5c6ccccc6n2c5c31)C(=O)NC4"
numeric_value = 30


Now consider a different compound.
May I ask what Kd has been recorded for CO[C@@H]1[C@H](N(C)CCOCCOCCOCCNC(=O)CCC2=[N+]3C(=Cc4c(C)cc(C)n4[B-]3(F)F)C=C2)C[C@H]2O[C@]1(C)n1c3ccccc3c3c4c(c5c6ccccc6n2c5c31)C(=O)NC4 ? 61

* * *

- system: Ribosomal protein S6 kinase alpha-5 (Homo sapiens, UniProt O75582)
- Sequence (O75582 whole entry): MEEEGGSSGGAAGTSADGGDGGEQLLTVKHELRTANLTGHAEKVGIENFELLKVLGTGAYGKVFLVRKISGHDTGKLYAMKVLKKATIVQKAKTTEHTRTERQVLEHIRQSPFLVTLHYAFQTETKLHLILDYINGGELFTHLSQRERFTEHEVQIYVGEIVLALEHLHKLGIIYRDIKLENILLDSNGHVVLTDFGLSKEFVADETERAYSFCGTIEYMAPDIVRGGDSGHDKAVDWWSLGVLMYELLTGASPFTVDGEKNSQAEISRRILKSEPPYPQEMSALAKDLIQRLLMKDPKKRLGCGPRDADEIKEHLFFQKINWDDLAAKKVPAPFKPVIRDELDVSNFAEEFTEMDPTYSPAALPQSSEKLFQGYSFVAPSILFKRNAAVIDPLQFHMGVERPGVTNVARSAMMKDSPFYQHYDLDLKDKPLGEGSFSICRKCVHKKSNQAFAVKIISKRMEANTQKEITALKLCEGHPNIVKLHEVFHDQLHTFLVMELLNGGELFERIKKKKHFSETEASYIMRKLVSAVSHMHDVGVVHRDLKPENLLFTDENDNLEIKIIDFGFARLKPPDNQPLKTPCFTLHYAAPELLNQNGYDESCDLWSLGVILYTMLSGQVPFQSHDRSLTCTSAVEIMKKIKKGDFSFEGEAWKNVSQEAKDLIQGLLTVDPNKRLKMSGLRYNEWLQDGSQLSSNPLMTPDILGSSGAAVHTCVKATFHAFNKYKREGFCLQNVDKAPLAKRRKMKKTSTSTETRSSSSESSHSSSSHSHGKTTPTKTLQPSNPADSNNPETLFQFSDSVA
- assay-remarks: Binding affinity to recombinant full-length N-terminal His-FLAG-GST-tagged RPS6KA5 (unknown origin) expressed in baculovirus infected Sf9 insect cells incubated for 1 hr by TR-FRET assay
metric: Kd (µM)
# number only, unit µM dropped from output

[[record]]
record_smiles = "CO[C@@H]1[C@H](NCCOCCOCCOCCNC(=O)CCC2=[N+]3C(=Cc4c(C)cc(C)n4[B-]3(F)F)C=C2)C[C@H]2O[C@]1(C)n1c3ccccc3c3c4c(c5c6ccccc6n2c5c31)C(=O)NC4"
units_text = "µM"
numeric_value = 0.345


Recorded Kd for CO[C@@H]1[C@H](N(C)CCOCCOCCOCCNC(=O)CCC2=[N+]3C(=Cc4c(C)cc(C)n4[B-]3(F)F)C=C2)C[C@H]2O[C@]1(C)n1c3ccccc3c3c4c(c5c6ccccc6n2c5c31)C(=O)NC4 with Ribosomal protein S6 kinase alpha-5 (Homo sapiens, UniProt O75582), please? 0.249
